Biological target: T1, IL-11R on STAT3 Reporter (Luciferase)-HEK293 cells (UniProt Q14626 23-422)
T1 sequence (looked up): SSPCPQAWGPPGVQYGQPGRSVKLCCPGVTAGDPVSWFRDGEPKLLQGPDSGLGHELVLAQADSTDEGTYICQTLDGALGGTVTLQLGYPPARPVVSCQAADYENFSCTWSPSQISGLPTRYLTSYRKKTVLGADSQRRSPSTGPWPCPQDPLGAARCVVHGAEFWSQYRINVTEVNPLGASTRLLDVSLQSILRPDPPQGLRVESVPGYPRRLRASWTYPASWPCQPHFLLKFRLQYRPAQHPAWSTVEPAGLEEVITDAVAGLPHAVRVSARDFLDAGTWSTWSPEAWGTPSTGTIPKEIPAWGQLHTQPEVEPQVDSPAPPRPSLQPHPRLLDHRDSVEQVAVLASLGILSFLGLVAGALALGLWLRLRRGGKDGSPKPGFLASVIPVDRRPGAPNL
Assay: cell-based or functional assay
Reported IC50, STAT3 luciferase reporter assay (HEK293), inhibiting IL-11, Mean values for the following binders.
Form entry: value (µg/mL) — number only.

mAb14 (antibody, V domains shown, Expressed as human IgG4 (S228P EU)) VH: EVQLLESGGGLVQPGGSLRLSCAASGFTFSWYSMTWVRQAPGKGLEWVSSIVPYGDLTQYAESVKGRFTISRDNSKNTLYLQMNSLRAEDTAVYYCAKGPGWGSFDLWGRGTLVTVSS VL: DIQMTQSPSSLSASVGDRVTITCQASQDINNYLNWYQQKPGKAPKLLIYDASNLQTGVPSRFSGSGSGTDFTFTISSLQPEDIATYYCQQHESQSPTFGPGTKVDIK | 0.34
mAb9 (antibody, V domains shown, Expressed as human IgG4 (S228P EU)) VH: EVQLLESGGGLVQPGGSLRLSCAASGFTFSWYSMTWVRQAPGKGLEWVSGIVPYGDLTQYADSVKGRFTISRDNSKNTLYLQMNSLRAEDTAVYYCAKGPGWGSFDLWGRGTLVTVSS VL: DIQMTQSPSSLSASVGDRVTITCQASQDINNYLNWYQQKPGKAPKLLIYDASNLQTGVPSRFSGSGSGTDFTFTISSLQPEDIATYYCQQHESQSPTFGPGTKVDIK | 0.1
mAb6 (antibody, V domains shown, Expressed as human IgG4 (S228P EU)) VH: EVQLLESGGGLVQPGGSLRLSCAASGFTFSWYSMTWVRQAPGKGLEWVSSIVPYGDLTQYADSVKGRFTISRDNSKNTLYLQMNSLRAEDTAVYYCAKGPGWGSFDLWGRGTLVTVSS VL: DIQMTQSPSSLSASVGDRVTITCQASQDINNYLNWYQQKPGKAPKLLIYDASNLQTGVPSRFSGSGSGTDFTFTISSLQPEDIATYYCQQHEFQSPTFGPGTKVDIK | 5.7

Please find the next binder below.
Task item: IC50, STAT3 luciferase reporter assay (HEK293), inhibiting IL-11, Mean lookup needed for mAb13 (antibody, V domains shown, Expressed as human IgG4 (S228P EU)) VH: EVQLLESGGGLVQPGGSLRLSCAASGFTFSWYSMTWVRQAPGKGLEWVSSIVPYGDLTQYADSVKGRFTISRDNSKNTLYLQMNSLRAEDTAVYYCAKPEDWGRFDLWGRGTLVTVSS VL: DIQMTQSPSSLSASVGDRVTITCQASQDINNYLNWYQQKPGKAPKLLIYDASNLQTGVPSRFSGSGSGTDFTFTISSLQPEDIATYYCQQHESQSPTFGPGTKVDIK , thanks.
Reply: 0.12
